# Experimental Protocol: soluble fraction after stress (log2 fold change); higher = more stays soluble; pooled small domains, quantitative proteomics
# Details: stress: pH 4
Readout Kind: soluble fraction (log2)
// no unit string in output, number only

Take a look at these entries with their results.
HMDATFKVRVSVPDLNIRSGPGTNYAATGRFTGVGVFTITAVQSGQGSSSGWGKLKSGAGWIALDYAKR	0.341
HMKHEFSEEWLDWIKSNIADGQNKNGLFKVLLNHGYAYDAVREVMQYEPTVPLDELVDPLRA	-0.953
HMGPVRDLGLLESAAHRPTTALWGRDVYATIEKKAAALLDSLVRDRPLADGNKRLGWLAALV	0.0116
HMSKHAIQNELEKIEGIGKQTADSLLKEFKSVKKLRTLPLSEIEKVIGKSKATIVFEALHKDK	0.0949
HMSVTIDAGGKVYLQESEIADDQLVPRLVAISNNGYDKPIYLRADKTVGYGRVAEVMSLLNAAGFTKLVLV	-0.244

Note to self: soluble fraction (log2) recorded for HMSMFSEILRTLRKAKGLTQRELAGHLGVTQQMVAKWEKGQSTPGPDQLTRMAELLEVSTDTLLGR was -0.104

Note to self: soluble fraction (log2) recorded for HMQSNDTAEIEAVVKEIMAANERVVNDYRSGNTKVVSFFVGQVMKATKGKANPKVVNEVLAKLLK was 0.169

Note to self: soluble fraction (log2) recorded for HMETDGGDLTPRERDVLSLIGRGLRNAEAASALGLSEHTIAGHIKSVYSKLGISTRAEAALLASRLGL was -0.261

Note to self: soluble fraction (log2) recorded for HMRPYAYGTGRRKSSTARVHLIPNGSGSITINGRTLDEYFGLETLKLIVRQPLAATETAEKFDVEATVV was -0.509

Note to self: soluble fraction (log2) recorded for HMRPQIAIDAIQALSLIMRTENKEDPTYLESRRVVSDAVAKRLSLNPTDLNRAWSRAPRDHQIAVLSALTQ was -0.184

Note to self: soluble fraction (log2) recorded for HMETMSGTVKWFNTQKGYGFITGDDGAEYFAHQTQIKMDGFRTLDAGDIVEFDVRSEEKGLAAVNIVP was -0.707

Note to self: soluble fraction (log2) recorded for HMSVFTDIYHQADHETKLMLIHEIKIVGDEKEFRLLKSIIDSTSNDLSKEANDALNAIKIRLALSK was -1.25

Note to self: soluble fraction (log2) recorded for HMGESEWIVKWRGEKRDEERLQESELVRDDPEHRISVVRPRDDVDASAWLNRWRKSRYVQYIQPNHRVTIS was 0.0349

Note to self: soluble fraction (log2) recorded for HMAVQAESDIIKRAALLRNLGNTSMQLKNIDQAIDFYKQGIKLHPEDAELKYNLSQALRQKSQSNN was 0.186
